# target-or-test-system: Glutamate receptor ionotropic, kainate 2 (Homo sapiens, UniProt Q13002)
# Sequence (Q13002 whole entry): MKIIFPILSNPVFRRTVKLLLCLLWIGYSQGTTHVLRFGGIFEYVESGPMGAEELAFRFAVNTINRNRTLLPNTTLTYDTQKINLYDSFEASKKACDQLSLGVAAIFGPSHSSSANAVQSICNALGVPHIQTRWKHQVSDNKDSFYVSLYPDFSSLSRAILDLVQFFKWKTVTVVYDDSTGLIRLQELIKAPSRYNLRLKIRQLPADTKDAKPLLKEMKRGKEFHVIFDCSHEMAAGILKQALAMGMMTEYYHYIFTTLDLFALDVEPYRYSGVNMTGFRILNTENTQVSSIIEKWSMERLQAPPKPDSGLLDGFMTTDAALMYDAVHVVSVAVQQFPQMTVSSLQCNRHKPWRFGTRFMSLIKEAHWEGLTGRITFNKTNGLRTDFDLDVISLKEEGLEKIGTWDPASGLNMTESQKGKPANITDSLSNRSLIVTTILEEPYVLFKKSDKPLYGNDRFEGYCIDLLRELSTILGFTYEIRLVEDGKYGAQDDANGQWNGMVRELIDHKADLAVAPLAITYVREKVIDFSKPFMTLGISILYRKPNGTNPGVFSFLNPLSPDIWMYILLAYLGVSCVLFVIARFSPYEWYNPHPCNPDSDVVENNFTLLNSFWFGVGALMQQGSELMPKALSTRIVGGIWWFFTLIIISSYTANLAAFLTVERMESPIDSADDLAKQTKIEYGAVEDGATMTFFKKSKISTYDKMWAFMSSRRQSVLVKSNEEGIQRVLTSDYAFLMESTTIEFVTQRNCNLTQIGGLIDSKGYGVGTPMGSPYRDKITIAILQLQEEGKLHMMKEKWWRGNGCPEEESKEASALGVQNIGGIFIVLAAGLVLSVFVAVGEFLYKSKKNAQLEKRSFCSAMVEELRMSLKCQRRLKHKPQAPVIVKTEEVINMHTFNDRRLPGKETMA
pKi: −log10 of the molar value.
measured-metric: pKi

Q: Can you share its pKi? I mean this molecule: O=C(O)[C@@H]1C[C@H]2C[C@@H](CCc3nn[nH]n3)CC[C@H]2CN1 [TEZAMPANEL ANHYDROUS]
A: < 4.00

----------
# target-or-test-system: Glutamate NMDA receptor
# assay-summary: Displacement of [3H](E)-3-(2-carboxy-2-phenylvinyl)-4,6-dichloro-1H-indole-2-carboxylic acid from NMDA receptor glutamate site from rat cortical membrane
measured-metric: pIC50
Give only the number. pIC50 is defined as minus log10 of concentration in molar units.

Q: Can you share its pIC50? I mean this compound: "C[C@H](NCc1cc([N+](=O)[O-])cc2nc(O)c(O)nc12)P(=O)(O)O"
A: 7.49

----------
# target-or-test-system: Glutamate NMDA receptor
# assay-summary: Inhibition of NMDA receptor glutamate site from rat cortical membrane
pKi: −log10 of the molar value.
measured-metric: pKi

Q: Can you share its pKi? I mean this molecule: O=c1[nH]c2cc(-n3ccnc3)c([N+](=O)[O-])cc2[nH]c1=O [YM-90K]
A: < 4.00

----------
Catalogue of compounds with associated IC50
# target-or-test-system: Glutamate NMDA receptor
# assay-summary: Inhibition of NMDA receptor glutamate site from rat cortical membrane
The figure you give is taken to be in µM; do not add the unit.

// below: answered compounds
O=c1[nH]c2cc(C(F)(F)F)c(N3CCOCC3)cc2n(CP(=O)(O)O)c1=O: 2.8
O=c1[nH]c2cc([N+](=O)[O-])cc(CNCP(=O)(O)O)c2[nH]c1=O: 0.49

Q: Can you share its IC50? I mean this compound: "O=c1[nH]c2cc([N+](=O)[O-])c([N+](=O)[O-])cc2[nH]c1=O"
A: 40

----------
# target-or-test-system: Glutamate receptor ionotropic, kainate 3 (Homo sapiens)
# Sequence (Q13003 whole entry): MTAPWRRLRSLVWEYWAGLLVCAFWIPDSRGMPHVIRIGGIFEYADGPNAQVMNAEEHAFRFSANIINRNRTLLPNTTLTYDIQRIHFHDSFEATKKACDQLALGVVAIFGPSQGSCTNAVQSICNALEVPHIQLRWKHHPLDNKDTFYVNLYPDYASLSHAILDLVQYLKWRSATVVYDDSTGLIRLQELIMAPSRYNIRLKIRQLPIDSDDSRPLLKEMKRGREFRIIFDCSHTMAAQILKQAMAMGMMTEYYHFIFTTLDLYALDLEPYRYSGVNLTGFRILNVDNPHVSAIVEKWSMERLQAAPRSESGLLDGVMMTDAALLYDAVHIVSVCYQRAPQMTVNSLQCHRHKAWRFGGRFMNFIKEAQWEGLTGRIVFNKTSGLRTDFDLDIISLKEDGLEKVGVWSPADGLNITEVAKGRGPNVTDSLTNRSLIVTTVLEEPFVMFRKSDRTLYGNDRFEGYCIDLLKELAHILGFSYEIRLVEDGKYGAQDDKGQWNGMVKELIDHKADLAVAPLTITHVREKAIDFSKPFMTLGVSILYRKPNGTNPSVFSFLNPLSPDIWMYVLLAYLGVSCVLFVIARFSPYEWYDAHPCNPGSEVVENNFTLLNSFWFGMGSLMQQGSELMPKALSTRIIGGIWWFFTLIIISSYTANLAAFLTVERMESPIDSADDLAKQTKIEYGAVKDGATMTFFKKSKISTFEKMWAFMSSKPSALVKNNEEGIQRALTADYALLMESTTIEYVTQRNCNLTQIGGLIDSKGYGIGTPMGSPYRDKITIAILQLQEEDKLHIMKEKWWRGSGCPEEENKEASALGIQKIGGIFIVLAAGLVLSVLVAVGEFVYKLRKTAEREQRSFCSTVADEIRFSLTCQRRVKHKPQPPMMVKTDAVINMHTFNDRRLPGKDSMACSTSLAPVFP
pKi: −log10 of the molar value.
measured-metric: pKi

Q: Field: pKi (Glutamate receptor ionotropic, kainate 3 (Homo sapiens)). Entry: O=C(O)[C@@H]1C[C@H]2C[C@@H](CCc3nn[nH]n3)CC[C@H]2CN1 [TEZAMPANEL ANHYDROUS]
A: < 4.00

----------
# assay-summary: Solubility of the compound at pH 7.4
# Type: physicochemical
# run-conditions: buffer
measured-metric: solubility (µg/mL)
The figure you give is taken to be in µg/mL; do not add the unit.

Q: Can you share its solubility? I mean this compound: "O=c1[nH]c2cc([N+](=O)[O-])cc(CNCP(=O)(O)O)c2[nH]c1=O"
A: 6600

----------
# assay-summary: Displacement of [3H]kainate from kainate receptor in rat cortical membrane
# Assay type: cell membranes
measured-metric: IC50 (µM)
The figure you give is taken to be in µM; do not add the unit.

// below: answered compounds
O=c1[nH]c2cc([N+](=O)[O-])c([N+](=O)[O-])cc2[nH]c1=O: 2
O=C(O)[C@@H]1C[C@H]2C[C@@H](CCc3nn[nH]n3)CC[C@H]2CN1 [TEZAMPANEL ANHYDROUS]: 28.1
O=C(O)Cn1c(=O)c(=O)[nH]c2cc([N+](=O)[O-])c(-n3ccnc3)cc21: 4.6
N#Cc1cc2c(cc1[N+](=O)[O-])=NC(=O)C(=O)N=2: 1.5
O=c1[nH]c2cc(C(F)(F)F)c(N3CCOCC3)cc2n(CP(=O)(O)O)c1=O: 2.5

Q: Can you share its IC50? I mean this compound: "CN(C)S(=O)(=O)c1cc2c(N=O)c(O)[nH]c2c2c1CCCC2"
A: 81

Q: # iterate: "O=c1[nH]c2cc([N+](=O)[O-])cc(CNCP(=O)(O)O)c2[nH]c1=O"
A: 4.2

Q: # iterate: "NS(=O)(=O)c1cccc2c1c([N+](=O)[O-])cc1nc(O)c(O)nc12"
A: 4.8

----------
# assay-summary: Displacement of [3H]AMPA from AMPA receptor in rat cortical membrane in presence of cyclothiazide
# Type: cell membranes
measured-metric: pIC50
Give only the number. pIC50 is defined as minus log10 of concentration in molar units.

Q: Can you share its pIC50? I mean this compound: "CN(C)S(=O)(=O)c1cc2c(N=O)c(O)[nH]c2c2c1CCCC2"
A: 6.82

----------
Catalogue of compounds with associated IC50
# assay-summary: Displacement of [3H]AMPA from AMPA receptor in rat cortical membrane
# Assay type: cell membranes
The figure you give is taken to be in nM; do not add the unit.

// below: answered compounds
NS(=O)(=O)c1cccc2c1c([N+](=O)[O-])cc1nc(O)c(O)nc12: 150
O=c1[nH]c2cc([N+](=O)[O-])cc(CNCP(=O)(O)O)c2[nH]c1=O: 290
O=c1[nH]c2cc([N+](=O)[O-])c([N+](=O)[O-])cc2[nH]c1=O: 500
O=P(O)(O)CNCc1cc(Br)cc2nc(O)c(O)nc12: 2400
N#Cc1cc2c(cc1[N+](=O)[O-])=NC(=O)C(=O)N=2: 300
O=C(O)[C@@H]1C[C@H]2C[C@@H](CCc3nn[nH]n3)CC[C@H]2CN1 [TEZAMPANEL ANHYDROUS]: 1300
O=c1[nH]c2cc(C(F)(F)F)c(N3CCOCC3)cc2n(CP(=O)(O)O)c1=O: 120

Okay, next one:
Q: Can you share its IC50? I mean this compound: "C[C@H](NCc1cc([N+](=O)[O-])cc2nc(O)c(O)nc12)P(=O)(O)O"
A: 170

----------
# target-or-test-system: Glutamate NMDA receptor
# assay-summary: Inhibition of NMDA receptor glycine site from rat cortical membrane
measured-metric: IC50 (µM)
The figure you give is taken to be in µM; do not add the unit.

// below: answered molecules
N#Cc1cc2c(cc1[N+](=O)[O-])=NC(=O)C(=O)N=2: 14
O=c1[nH]c2cc([N+](=O)[O-])c([N+](=O)[O-])cc2[nH]c1=O [DNQX]: 9.5
O=c1[nH]c2cc(C(F)(F)F)c(N3CCOCC3)cc2n(CP(=O)(O)O)c1=O [FANAPANEL]: 5.15

Q: Field: IC50 (Glutamate NMDA receptor). Entry: "O=c1[nH]c2cc([N+](=O)[O-])cc(CNCP(=O)(O)O)c2[nH]c1=O"
A: 1.16

Values were extracted from ChEMBL document CHEMBL1212813.
